Molecular target: T1, BMP-10 (UniProt O95393 317-424)
T1 sequence (looked up): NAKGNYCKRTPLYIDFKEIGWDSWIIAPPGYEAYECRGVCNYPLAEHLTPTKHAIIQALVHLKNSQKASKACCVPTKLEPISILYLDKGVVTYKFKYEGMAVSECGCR
Test: SPR (Biacore 8K), Fc protein captured on anti-human IgG, ligand injected
observable: pKd
pKd field: float, defined as -log10 of concentration (mol/L).

Examples with their reported pKd follow.
[
  {
    "binder": "ActRIIA-A1 (SEQ ID NO: 104) chimera-Fc protein (Fc fusion, Tested as chimera-Fc protein; not shown: linker (if any) and Fc domain) GRGEAETRECLFFNANWEKDRTNQTGVEPCYGDKDKRRHCFATWKNISGSIEIVKQGCWLDDINCYDRTDCVEKKDSPEVYFCCCEGNMCNEKFSYFPEMEVTQPTS",
    "pKd": 10.18
  },
  {
    "binder": "ActRIIB-A5 (SEQ ID NO: 123) chimera-Fc protein (Fc fusion, Tested as chimera-Fc protein; not shown: linker (if any) and Fc domain) GRGEAETRECIYYNANWELERTNQSGLERCEGEQDKRLHCYASWRNSSGTIELVKKGCWLDDINCYDRTDCVATEENPQVYFCCCEGNFCNERFTHLPEAGGPEVTYEPPPTAPT",
    "pKd": 10.82
  },
  {
    "binder": "ActRIIB-A3 (SEQ ID NO: 122) chimera-Fc protein (Fc fusion, Tested as chimera-Fc protein; not shown: linker (if any) and Fc domain) GRGEAETRECIYYNANWELERTNQSGLERCYGDKDKRLHCYASWRNSSGTIELVKKGCWLDDFNCYDRQECVATEENPQVYFCCCEGNFCNERFTHLPEAGGPEVTYEPPPTAPT",
    "pKd": 10.80
  }
]

Let us examine a further case.
Task: What value of measured pKd is listed for ActRIIB-B1B2B3B4 (SEQ ID NO: 119) chimera-Fc protein (Fc fusion, Tested as chimera-Fc protein; not shown: linker (if any) and Fc domain) GRGEAETRECLFFNANWELERTNQTGVEPCEGEQDKRRHCFATWKNISGSIEIVKQGCWLDDFNCYDRQECVATEENPQVYFCCCEGNFCNERFTHLPEAGGPEVTYEPPPTAPT ?
Output: 9.43
